- target_or_test_system: pooled human IgG (human IgG1,2,3 and 4)
// reported Enzyme Activity Endpoint Assay: scIgG per item
Report as a plain number; the unit ng/µL is understood.

PRT-109 (protein) MRNATEAYAKEVPHTITSVWTKGVTPLTPEQFRYNNEDVIHAPYVAHQGWYDITKTFDGKDNLLCGAATAGNMLHWWFDQNKTEIEAYLSKHPEKQKIIFNNQELFDLKAAIDTKDSQTNSQLFNYFRDKAFPNLSARQLGVMPDLVLDMFINGYYLNVFKTQSTDVNRPYQDKDKRGGIFDAVFTRGDQTTLLTARHDLKNKGLNEISTLIKQELTEGKALALSHTYANVSISHVINLWGADFNAEGNLEAIYVTDSDDNASIGMKKYFVGVNAAGKVAISAKKIEGENIGAQVLGLFTLSSGKDIWQKLS; 0

Next:
Qu. Value lookup for Enzyme Activity Endpoint Assay: scIgG; key = PRT-90 (protein) MANQEIRYSEETPYHVTSVWTKGVTPPAKFTQGEDVFHAPYVANQGWYDITKTFNGKDDLLCGAATAGNMLHWWFDQNKEKIEAYLKKHPEKQKIMFGDQELLDVRKVINTKDDQTNSELFNYFRDKAFPGLSARRLGVMPDLVLDMFINGYYLNVYKTQTTDVNRTYQEKDRRGGIFDAVFTRGDQSKLLTSRHDFKEKTLKEISDLIKKELTEGKALGLSHTYANVRINHVINLWGADFDSNGNLKAIYVTDSDSNASIGMKKYFVGVNSAGKVAISAKEIKEDNIGAQVLGLFTLSTGQDIWNQTN
Ans. 0
